Target entity: human CCR8 (HA-tagged) on stably transfected HEK293 cells (human), P51685
Sequence (P51685 whole entry): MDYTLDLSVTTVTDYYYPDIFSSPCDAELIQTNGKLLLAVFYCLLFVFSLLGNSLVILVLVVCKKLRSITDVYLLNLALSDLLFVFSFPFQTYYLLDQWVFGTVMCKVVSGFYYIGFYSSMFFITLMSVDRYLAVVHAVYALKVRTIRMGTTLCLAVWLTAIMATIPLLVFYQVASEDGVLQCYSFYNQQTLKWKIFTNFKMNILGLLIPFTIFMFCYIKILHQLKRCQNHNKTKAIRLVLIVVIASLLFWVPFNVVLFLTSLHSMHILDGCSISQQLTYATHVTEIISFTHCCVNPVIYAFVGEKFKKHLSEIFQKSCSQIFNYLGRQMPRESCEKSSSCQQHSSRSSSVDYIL
Experiment: flow cytometry on cells
Setup conditions: remark: other sources report otherwise
Measured metric: IC50 (nM)
Lab book: enter the figure in nM, no units written.

IN: Which measured IC50 value corresponds to unlabeled human recombinant CCL18, P55774 21-89 (ligand) AQVGTNKELCCLVYTSWQIPQKFIVDYSETSPQCPKPGVILLTKRGRQICADPNKKWVQKYISDLKLNA ?
OUT: 4.1
